Tested on: Trypanosoma brucei brucei
Assay Text: GSK_TCAKS: pIC50 Trypanosoma brucei viability assay using luminiscence. Assay plates (1536-well) were prepared. T. brucei cultures were harvested and counted in a CASY cell counter. A parasite suspension was prepared at a final concentration of 5 * 10^4 cells/mL in complete HMI9 medium and 6uL was dispensed to all wells containing compounds using a Multidrop Combi dispenser. 6uL of HMI9 media with 0.4% DMSO were dispensed to control columns. Plates were incubated for 24 h at 37C, 5% CO2 then tempered for 10 min at room temperature. ATP content was quantified by adding 4 uL of CellTiter-Glo Reagent (Promega) according to the manufacturer's instructions. Luminescence was measured using a ViewLux.
Type: functional, organism-based
Applied Conditions: Lister 427, CASY
Mark rule met only for IC50 values smaller than 3 µM; exact matches and larger values are rule not met.

Below, 5 compounds whose answers are already recorded.
Compound | Label Value
CNc1cncc(C2CCCN2C(=O)Cc2coc3cc(C)ccc23)n1 (stereo not drawn) | rule not met
c1cc(-c2ncc(-c3ccn[nH]3)s2)ccn1 | rule not met
COc1ccc(-c2cnc(NC(=O)c3ccc(F)cc3)n2C)cc1 | rule not met
Cc1ccccc1CNc1cc(C2CC2)nc(-c2nccn2C)n1 | rule met
O=C(COc1ncnc2cc([N+](=O)[O-])ccc12)NC(=O)NC1CCCCC1 | rule not met

Task item: Identify whether the compound NC(=O)c1ccc(-c2cccc(OCCN3CCN(C4CCCCC4)CC3)c2)cc1 records IC50 below 3 µM.
Reply: rule not met

Task item: What about this compound? Cc1[nH]nc(Nc2ccnc3[nH]ccc23)c1C
Reply: rule met

Task item: What about this compound? O=C(Nc1ccc(Br)c(Cl)c1)Nc1ccc2c(c1)OCO2
Reply: rule not met

Task item: What about this compound? O[C@H]1CC[C@H](Nc2nccc(-c3sc(C4CCOCC4)nc3-c3ccc(F)c(F)c3)n2)CC1
Reply: rule not met

Task item: What about this compound? CCCc1cc(N)nc(-c2cc(CCC)cc(N)n2)c1
Reply: rule not met

Task item: What about this compound? CCN(CC)c1ccc(S(=O)(=O)N(CC)CC)c2nonc12
Reply: rule not met

Task item: What about this compound? COc1cccc(NS(=O)(=O)c2ccc3ncc(C(=O)NCCC(C)C)c(O)c3c2)c1
Reply: rule met

---

Give IC50 at 48 h for every item shown.
Assay Text: GSK_TCAKS: pIC50 HepG2 human cell line viability assay using luminiscence. […] Seeding density was checked to ensure that new mono-layers were not more than 50% confluent at the time of harvesting. Cell suspension was added to 500 mL of the same medium at a final density of 1.2 * 10^5 cells/mL. This cell suspension was dispensed (25 uL, 3000 cells per well) into 384-well clear-bottom plates using a Multidrop Combi dispenser. Prior to addition of the cell suspension, the screening compounds (250 nL) were pre-dispensed into the plates with an Echo liquid handler. Plates were incubated for 48 h at 37C, 5% CO2. After incubation, plates equilibrated at room temperature for 30 min before proceeding to develop the luminescent signal. The signal developer, CellTiter-Glo Reagent, was allowed to equilibrate at room temperature for 30 min and added to the plates (25uL per well) using a Multidrop Combi dispenser. Plates were left for 10 min at room temperature for stabilization and then read using a ViewLux.
Assay type: toxicity, cell-based

Give measured IC50 at 48 h for every item shown.
1. COc1ccc(S(=O)(=O)Nc2ccc(C(=O)Nc3nc(-c4ccccn4)cs3)cc2)cc1
2. c1cc(-c2ncc(-c3ccn[nH]3)s2)ccn1
3. Cc1nn2c(NCCCO)c3c(nc2c1-c1cccs1)CCC3
4. COc1ccc(C(=O)NC2CCN(CCn3c(=O)ccc4ncc(F)cc43)CC2)cc1Cl
5. Clc1ccc(Sc2cnccc2N2CCOCC2)cc1

Reply:
1. 63.1 µM
2. > 100 µM
3. > 100 µM
4. > 100 µM
5. > 100 µM

Give measured IC50 at 48 h for every item shown.
1. COc1ccc(-c2csc(NC(=O)c3ccc([N+](=O)[O-])s3)n2)cc1OC
2. CC(=O)Nc1ccc(CN2CCC(N3CC(c4ccccc4)(c4ccccc4)OCC3=O)CC2)cc1
3. CS(=O)(=O)c1ccccc1C(=O)N(Cc1ccccc1)c1ccccc1

Reply:
1. 10 µM
2. 79.4 µM
3. > 100 µM

Give measured IC50 at 48 h for every item shown.
1. CC(CCc1ccccc1)NC(=O)CN(Cc1ccccn1)Cc1ccccn1 (configuration not stated)
2. CCC(=O)Nc1ccccc1C(=O)Nc1ccccn1
3. Cc1nn2c(O)c3c(nc2c1-c1ccc(F)cc1)CCCC3
4. CN(C)c1ccc(N)cc1CN(CC1CCCO1)S(C)(=O)=O (configuration not stated)
5. Cc1nc(-c2ccc3c(c2)OCO3)sc1C(=O)NCc1ccc2c(c1)OCO2
6. O=C(COc1ncnc2cc([N+](=O)[O-])ccc12)NC(=O)NC1CCCCC1
7. CC(=O)Nc1ccc(Nc2nccc(-c3cnn4ncccc34)n2)cc1C(F)(F)F

Reply:
1. > 158 µM
2. > 100 µM
3. > 100 µM
4. > 100 µM
5. > 100 µM
6. > 100 µM
7. > 100 µM

---

Tested on: Trypanosoma cruzi
Assay Text: GSK_TCAKS: pIC50 Trypanosoma cruzi Imaging: Infected Cells. […] Cells were then washed once with PBS before infection. T. cruzi trypomastigotes, collected at days 5 to 8 after infection from LLC-MK2 parasite infected cultures, were allowed to swim out for 4h at 37C from a centrifuged pellet (2,500 rpm/10 min/room temperature). Trypomastigotes were then collected and counted in a CASY Cell Counter. Trypomastigotes, in supplemented DMEM, were added to H9c2 cultures in a multiplicity of infection of 1 and incubated for 18 h. Cells were washed once with PBS before incubation of the infected H9c2 monolayer with trypsin (Life-Technologies) to detach cells from the flask. Cells were counted in a CASY Cell Counter using a 150 um capillary and their density set at 5 * 10^4 cells per mL in supplemented assay DMEM. Infected H9c2 were dispensed into 384-well poly-lysine coated assay plates at 50uL per well using a Multidrop Combi dispenser. After seeding them, the plates were incubated at 37C, 5% CO2 for 72h. Cultures were then fixed and stained by addition of 50 uL of a solution containing 8% formaldehyde and 4 uM DRAQ5 DNA dye (BioStatus, UK) per well. […] Five images were collected per well for reliable statistical analysis. Automated image analysis was performed with a script developed on Acapella High Content Imaging and Analysis Software (PerkinElmer). Output: percentage of infected cells per well as a second infection marker.
Format: functional, organism-based, Rattus norvegicus
Applied Conditions: H9c2, 4 h
pIC50: −log10 of the molar value.
Think of 6 as a floor: if pIC50 stands on it or above, it is yes; beneath it, no.

Compound | Label Value
O=C(Cn1cnc2c(-c3ccccc3)csc2c1=O)N1CCCCC1 | no
COc1cc(OC)cc(C(NS(=O)(=O)c2ccc(Cl)c(C(F)(F)F)c2)c2nccn2C)c1 (stereo not given) | no
O=S(=O)(NCC(c1cccnc1)N1CCN(c2ccc(F)cc2)CC1)c1cccs1 (stereo not given) | yes
CS(=O)(=O)c1ccc(Nc2nccc(Nc3n[nH]c4ccc(F)cc34)n2)c(F)c1 | no
COc1cccc(-c2c(C)nn(-c3nc(N)nc(-c4ccccn4)n3)c2N)c1 | no

Attention now shifts to the item below.
Task item: Test whether the compound CC(c1cc(Cl)cc(Cl)c1)N(C)c1ncc2c(N)nc(N)nc2n1 (stereo not given) records pIC50 of 6 or higher.
Reply: yes

---

Tested on: Trypanosoma cruzi
Assay Text: GSK_TCAKS: pIC50 Trypanosoma cruzi Imaging: Infected Cells. […] Cells were then washed once with PBS before infection. T. cruzi trypomastigotes, collected at days 5 to 8 after infection from LLC-MK2 parasite infected cultures, were allowed to swim out for 4h at 37C from a centrifuged pellet (2,500 rpm/10 min/room temperature). Trypomastigotes were then collected and counted in a CASY Cell Counter. Trypomastigotes, in supplemented DMEM, were added to H9c2 cultures in a multiplicity of infection of 1 and incubated for 18 h. Cells were washed once with PBS before incubation of the infected H9c2 monolayer with trypsin (Life-Technologies) to detach cells from the flask. Cells were counted in a CASY Cell Counter using a 150 um capillary and their density set at 5 * 10^4 cells per mL in supplemented assay DMEM. Infected H9c2 were dispensed into 384-well poly-lysine coated assay plates at 50uL per well using a Multidrop Combi dispenser. After seeding them, the plates were incubated at 37C, 5% CO2 for 72h. Cultures were then fixed and stained by addition of 50 uL of a solution containing 8% formaldehyde and 4 uM DRAQ5 DNA dye (BioStatus, UK) per well. […] Five images were collected per well for reliable statistical analysis. Automated image analysis was performed with a script developed on Acapella High Content Imaging and Analysis Software (PerkinElmer). Output: percentage of infected cells per well as a second infection marker.
Format: functional, organism-based, Rattus norvegicus
Applied Conditions: H9c2, 4 h
Mark Satisfied only for IC50 values smaller than 10 µM; exact matches and larger values are Not satisfied.

Compound | Label Value
Cc1nn(-c2nc3ccccc3s2)c2c1C(c1ccc(OCC(N)=O)cc1)SCC(=O)N2 (centres undefined) | Not satisfied

Task item: Identify whether the compound COc1cccc(CCNC(=O)C(c2cn[nH]c2)N2CCN(c3ccc(Cl)cc3)CC2)c1 (centres undefined) records IC50 below 10 µM.
Reply: Satisfied

Task item: What about this compound? CN(CC1CCCO1)S(=O)(=O)c1ccc(C(=O)Nc2nc(-c3ccccn3)cs2)cc1 (centres undefined)
Reply: Satisfied

Task item: What about this compound? Cc1ccc(NC(=O)c2ccc(Cl)c(NC(=O)c3ccc([N+](=O)[O-])cc3)c2)cc1
Reply: Satisfied

Task item: What about this compound? COc1ccc(C(=O)Nc2cc(C(F)(F)F)ccc2N2CCOCC2)c(OC)c1
Reply: Satisfied

Task item: What about this compound? COCCn1c(-c2ccccc2)cnc1NCc1ccccc1OC
Reply: Not satisfied

Task item: What about this compound? Cn1ccnc1CN1CCc2[nH]cnc2C1c1ccccc1OCc1ccccc1 (centres undefined)
Reply: Not satisfied
